# system_tested: human monomeric IgG (Research Diagnostics)
# assay_notes: RF test, competition: peptide pre-incubated with human monomeric IgG, washed, then 200 I.U. RF (competitor); OD = RF bound, lower = more inhibition
Positions of bridges follow the written chain, without caps; N, C: chain ends. No end group written: not given here.
Each entry below carries its recorded OD 405 nm.
observable: OD 405 nm (OD)

binder="DCAWHLGELAACT (cyclized by a disulfide bond between the two cysteine residues) [… peptide (SEQ ID NO:42)]" numeric_readout=1.4
binder="RCARHLGELVWCT (disulfide 2-12 (inferred)) [… peptide (SEQ ID NO:5)]" numeric_readout=1.31
binder="DCAAHLGELAACT (cyclized by a disulfide bond between the two cysteine residues) [… peptide (SEQ ID NO:40)]" numeric_readout=1.42
binder="PCARHLGELVWCT (disulfide 2-12 (inferred)) [… peptide (SEQ ID NO:41)]" numeric_readout=1.32
binder="DCARHLGELVWCT (disulfide 2-12 (inferred)) [… peptide (SEQ ID NO:4)]" numeric_readout=1.23

Reference source for all entries: patent US20070276125A1
